target: Poly [ADP-ribose] polymerase 1 (Homo sapiens) (UniProt P09874); assay: Induction of PARP1 degradation in triple negative human MDA-MB-231 cells assessed as fold change in PARP1 protein expression at 5 uM incubated for 48 hrs by Western blot analysis relative to control; assay type: cell-based
Sequence (P09874 whole entry): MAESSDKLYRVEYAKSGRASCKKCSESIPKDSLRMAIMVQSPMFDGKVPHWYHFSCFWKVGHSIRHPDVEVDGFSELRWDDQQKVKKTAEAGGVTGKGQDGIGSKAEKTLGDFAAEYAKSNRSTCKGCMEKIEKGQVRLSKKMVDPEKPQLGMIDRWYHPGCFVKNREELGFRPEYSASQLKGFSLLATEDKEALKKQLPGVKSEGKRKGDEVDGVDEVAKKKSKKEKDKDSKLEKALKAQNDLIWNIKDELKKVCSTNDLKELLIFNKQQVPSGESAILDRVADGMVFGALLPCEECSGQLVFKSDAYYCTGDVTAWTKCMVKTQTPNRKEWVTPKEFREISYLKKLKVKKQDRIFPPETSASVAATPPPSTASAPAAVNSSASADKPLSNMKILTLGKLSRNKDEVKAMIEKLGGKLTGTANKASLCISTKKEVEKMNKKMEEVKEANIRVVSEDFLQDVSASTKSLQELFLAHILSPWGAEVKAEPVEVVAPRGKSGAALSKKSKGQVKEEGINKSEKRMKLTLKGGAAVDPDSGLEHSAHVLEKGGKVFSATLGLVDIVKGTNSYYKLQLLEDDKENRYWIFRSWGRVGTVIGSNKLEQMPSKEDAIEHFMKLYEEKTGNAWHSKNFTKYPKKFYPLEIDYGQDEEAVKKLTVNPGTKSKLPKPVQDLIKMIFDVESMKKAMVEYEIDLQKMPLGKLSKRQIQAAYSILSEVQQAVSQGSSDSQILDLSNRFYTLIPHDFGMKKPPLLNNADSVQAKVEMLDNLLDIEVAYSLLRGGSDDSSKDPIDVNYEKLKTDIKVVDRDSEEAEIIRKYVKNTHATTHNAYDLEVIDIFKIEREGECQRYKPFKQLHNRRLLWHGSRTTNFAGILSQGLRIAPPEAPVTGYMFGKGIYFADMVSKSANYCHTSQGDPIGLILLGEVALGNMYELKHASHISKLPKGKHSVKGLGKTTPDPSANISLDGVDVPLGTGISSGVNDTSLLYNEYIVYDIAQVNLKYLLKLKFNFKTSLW
metric: fold change (FC)

>>> print(df.to_string())
                                  structure            metric  test_value
0  O=C(NCCCCCCN1CCN(C(=O)c2cc(Cc3n[nH]c(=O)c4ccccc34)ccc2F)CC1)C(C1CCCCC1)C1CCCCC1  fold change (FC)         0.8
1  O=C(CC12CC3CC(CC(C3)C1)C2)N1CCN(C(=O)c2cc(Cc3n[nH]c(=O)c4ccccc34)ccc2F)CC1  fold change (FC)         0.7
2  CC(C)Cc1ccc([C@H](C)C(=O)NCCN2CCN(C(=O)c3cc(Cc4n[nH]c(=O)c5ccccc45)ccc3F)CC2)cc1  fold change (FC)         0.8

====

molecular target: Poly [ADP-ribose] polymerase 1 (Homo sapiens); experiment: Induction of PARP1 degradation in triple-negative human MDA-MB-231 cells assessed as fold change in PARP1 protein expression at 10 uM incubated for 48 hrs by Western blot analysis relative to control; type: cell-based
metric: fold change (FC)

>>> df
                                  structure  test_value
0  O=C(NCCCCN1CCN(C(=O)c2cc(Cc3n[nH]c(=O)c4ccccc34)ccc2F)CC1)C(C1CCCCC1)C1CCCCC1         1.2
1  O=C(NCCCCN1CCN(C(=O)c2cc(Cc3n[nH]c(=O)c4ccccc34)ccc2F)CC1)C(c1ccccc1)c1ccccc1         1.2

[A] O=C(CC12CC3CC(CC(C3)C1)C2)NCCN1CCN(C(=O)c2cc(Cc3n[nH]c(=O)c4ccccc34)ccc2F)CC1
[B] CC(C)Cc1ccc([C@H](C)C(=O)NCCN2CCN(C(=O)c3cc(Cc4n[nH]c(=O)c5ccccc45)ccc3F)CC2)cc1
Q. Please indicate which item has the smaller measured fold change (FC): A versus B Identify your pick by its label.
A. B

====

target: Poly [ADP-ribose] polymerase 1 (Homo sapiens) (UniProt P09874); assay: Induction of PARP1 degradation in triple-negative human MDA-MB-231 cells assessed as fold change in PARP1 protein expression at 2.5 uM incubated for 48 hrs by Western blot analysis relative to control; assay type: cell-based
metric: fold change (FC)

                                  structure                               measured_on  test_value
0  CC(C)Cc1ccc([C@H](C)C(=O)NCCCCN2CCN(C(=O)c3cc(Cc4n[nH]c(=O)c5ccccc45)ccc3F)CC2)cc1  Poly [ADP-ribose] polymerase 1 (Homo sapiens) (UniProt P09874)         0.9
1  O=C(c1cc(Cc2n[nH]c(=O)c3ccccc23)ccc1F)N1CCN(C(=O)C(c2ccccc2)c2ccccc2)CC1  Poly [ADP-ribose] polymerase 1 (Homo sapiens) (UniProt P09874)           1
2  O=C(NCCCCCCN1CCN(C(=O)c2cc(Cc3n[nH]c(=O)c4ccccc34)ccc2F)CC1)C(c1ccccc1)c1ccccc1  Poly [ADP-ribose] polymerase 1 (Homo sapiens) (UniProt P09874)         1.4
3  O=C(NCCCCN1CCN(C(=O)c2cc(Cc3n[nH]c(=O)c4ccccc34)ccc2F)CC1)C(C1CCCCC1)C1CCCCC1  Poly [ADP-ribose] polymerase 1 (Homo sapiens) (UniProt P09874)         1.1
4  O=C(CC12CC3CC(CC(C3)C1)C2)NCCCCN1CCN(C(=O)c2cc(Cc3n[nH]c(=O)c4ccccc34)ccc2F)CC1  Poly [ADP-ribose] polymerase 1 (Homo sapiens) (UniProt P09874)         1.1
